Attribution: patent US20230235029A1

Form field: NT50 (one value per entry).
- TARGET_ENTITY: T1, RAVV GP on rVSV pseudotype (VSV-MARV RAVV GP) (Ravn virus, UniProt Q1PDC7 19-681)
- T1 sequence: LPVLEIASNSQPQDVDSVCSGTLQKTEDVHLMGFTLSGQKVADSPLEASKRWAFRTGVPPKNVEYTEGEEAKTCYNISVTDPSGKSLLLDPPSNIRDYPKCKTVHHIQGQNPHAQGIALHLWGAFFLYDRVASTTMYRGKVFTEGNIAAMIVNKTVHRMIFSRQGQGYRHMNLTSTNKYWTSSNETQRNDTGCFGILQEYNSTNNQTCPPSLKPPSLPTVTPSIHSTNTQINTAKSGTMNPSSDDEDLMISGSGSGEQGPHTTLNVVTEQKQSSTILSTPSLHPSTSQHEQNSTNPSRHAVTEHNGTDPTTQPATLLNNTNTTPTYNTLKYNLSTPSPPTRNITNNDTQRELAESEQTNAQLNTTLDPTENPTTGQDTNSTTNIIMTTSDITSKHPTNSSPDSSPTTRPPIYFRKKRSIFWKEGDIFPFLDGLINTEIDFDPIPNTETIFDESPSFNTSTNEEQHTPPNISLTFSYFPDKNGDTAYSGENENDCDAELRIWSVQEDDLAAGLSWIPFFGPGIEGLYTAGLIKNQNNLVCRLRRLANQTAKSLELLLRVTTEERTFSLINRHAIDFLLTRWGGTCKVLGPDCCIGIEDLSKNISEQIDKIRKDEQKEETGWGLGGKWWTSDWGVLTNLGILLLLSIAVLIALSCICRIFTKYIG
- EXPERIMENT_SUMMARY: cell-based or functional assay
PROPERTY: NT50 (µg/mL)

binder="R63 (antibody, V domains shown) VH: QVQLQESGPGLVKASETLSLTCAVSGASISSYWWNWIRLSPGKGLEWIGEIYGYSGSTSYNSSLKSRVSISRDASKNQFSLKLSSVTAADTAVYYCARDPLNHDAFDFWGRGFRVTVSS VL: QSALTQPPSVSGSPGQSVTISCAGTSSDIGGYTYVSWYQQHPGKAPKLMIYDVNERPSGVSDRFSGSKSGNTASLTISGLQAEDEADYYCSSYAGSKTVSFGGGTRLSVL" property=NT50 endpoint_unit=µg/mL observed_result=0.17
binder="R83 (antibody, V domains shown) VH: QVQLQESGPGLVKPSETLSLTCAVSGASISDYWWNWIRQPPGKGLEWIGEIYGYSGSTYYNPSLKSRVTISKDASKKQLSLRLTSVTAADTAIYYCARDPLNQDAFDFWGLGLRVTVSS VL: QSALTQPPSVSGSPGQSVTISCTGTSSDIGGYTYISWYQQYPGKAPKLMIYDVSKRPSGVSDRFSGSKSGNTASLTVSGLQAEDEADYYCSSYGGRKTLLFGGGTRLTVL" property=NT50 endpoint_unit=µg/mL observed_result=0.17
